# protocol: soluble fraction after stress (log2 fold change); higher = more stays soluble; pooled small domains, quantitative proteomics;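 note: 20 min heating vs room temperature control held 20 min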
# assay-context: stress: 75 degC
# key: entry, value: soluble fraction (log2)
measurement-label: soluble fraction (log2)

# macromolecule-sequence, value-measured
data = [
    ("HMKHSLNHLGLWLLPELSRRDIQLREFAHLLGTTSQGLSDLLRGQRFSSHTLAQWQLRFQEKLDEIDQAS", -1.99),
    ("HMDEPGTGFKWREDVLLRVMEANGIDTSHRDDFVRHAVKFDNDDNLYLKKAEIEDAAAAWVSEHS", 0.161),
    ("HMAMDYYAIGQRIRKFRKAHDWSQEELAEKVEISTTHMSHIETGSTKLSLPVLVSLANVLDVRTDDLLF", -3.81),
    ("HMDKSFYETFEKIGHGDFDKGLNHVWQHANDGNGTATLLLSKLFLEFGDLDNFEKYLNISAEQSNPVAMKI", -0.357),
]

====

# key: entry, value: soluble fraction (log2)
# protocol: soluble fraction after stress (log2 fold change); higher = more stays soluble; pooled small domains, quantitative proteomics
# assay-context: stress: 75 degC
measurement-label: soluble fraction (log2)

# macromolecule-sequence, value-measured
rows = [
    ("HMVLVGERRQKILEVVSSGKAVTVEELSRILHVSPSTVRRDLRFLESRGLLYRTHGGAMPPV", -1.95),
    ("HMLALVREQIERNVSNPTDEDIRKIRHDVMEVITRAGADAATVDIAIEIDSQKNILRAIATGATEL", -0.0966),
    ("HMNLGLTGDPSVLYSILLQRGDSSRADLQRQTGWSLSKTTLVLNQLLAQKLIVQVGAGRSTQYRVIN", -2.78),
    ("HMSLMHEESLKNIRRFINSLPESLRTAFTLREQDGLSYEEIGVITETPIGTVRSRIFRAREAILEHIKKEL", -2.39),
    ("HMVPPELEFLQSLMKIEDISELTAAIENNRDAVTDDFKEMLETVIENISGAPDTDPKLLERLKTIRTVLA", -0.0936),
    ("HMNAEQLAQVRRQKIGFIFQDFRLFPEYTVRDNILIPFYLDHRAPDEQMLHKLTGILGIAGKLHSRPAQL", -0.181),
    ("HMLVGRDPQALILGSMPSEKSLEEDEYYAHPRNRFWSLMNWLLAGNKTRPAYKTGIEILSSHGIALWV", -0.358),
    ("HMPYSPTPGSAPARLIAHLQEHGDSVNRTAIAELLQVDRKNVHNYLARAVTHGLLLRHGGGAYSLP", 0.0908),
]

====

# protocol: soluble fraction after stress (log2 fold change); higher = more stays soluble; pooled small domains, quantitative proteomics
# assay-context: stress: 75 degC
# key: entry, value: soluble fraction (log2)

# macromolecule-sequence, soluble fraction (log2)
measured = [
    ("HMLSTGQLIRYYRKRAGMTQAELAEEVEMSEPGIRNYELGNRTPSKAQLSAIARGLGIEPEALI", -0.63),
    ("HMESRRVTLLLPYDKAGIADTLRREAAVLSLEYGEDGVTVEAVVKPELWGLVREYVQNDNPK", -0.135),
    ("HMKLPIEKESYRIIWDLEEESFRIRLKISENSPQEEKNILINQAIEDIENITGEPIDKSPYYVLYE", -0.627),
    ("HMAVSVPDVMGLTYEEAYNKITAEGLLVNRLESYTGLVEKGRVISQLPVGGEPAAKGSTVNVNVSL", 0.466),
    ("HMLIIDLPDFTNKKLSELQQWADANQITLKIVEKDVSSKPYDTILEQTPAKNKYEKIVKGSTMTVTVNIK", -0.965),
    ("HMFLTPLEETRLAIEEVVIAKNIAIDLFPRESAIRKQQHELIYHYHLKGLTVGTEKNKRLRIFPRGY", 0.0279),
    ("HMKEEVEILGGKATIYTNDYGVWQFRLWLTTDNKYVRKSLRTKVKDYAITEGEKLYIQIRSDIEKGIKYY", -1.13),
    ("HMTSSQLYLIEEDMEGERLDAFLAEVIADLSRTAIKDLISNGRVLVDGQARKPSYRVKEGEQVLIHVPEAR", -0.392),
]
